Assay: Compound solubility in water
Format: physicochemical
Observable: log10 of solubility (log10 of the value in µg/mL)
Values are log10 of solubility in µg/mL.

These recorded examples may help you get a feel for the data.
>  <Molecule>
Cc1cc(C)c2cnc(C(=O)Nc3ccc4c(c3)CCC4)n2n1

>  <Test Value>
0.32

$$$$
>  <Molecule>
Cc1cc(-c2cccc(C#N)c2)nn2c(C(=O)NC(C3CC3)C(F)(F)F)cnc12 (stereo not shown)

>  <Test Value>
-0.70

$$$$
>  <Molecule>
Cc1cc(-c2ccc3ocnc3c2)nn2c(C(=O)NC(C)C(F)(F)F)cnc12 (stereo not shown)

>  <Test Value>
0.11

$$$$
>  <Molecule>
Cc1cc(C)c2ncc(C(=O)NC3(C)CCCc4ccccc43)n2n1 (stereo not shown)

>  <Test Value>
0.86

$$$$

Lookup: Give the measured log10 of solubility of Cc1cc(-c2ccc(F)cc2C#N)nn2c(C(=O)N[C@H](C)C3CC3)cnc12 .
Found: 0.36

Lookup: Fill in: log10 of solubility of Cc1cc(-c2cccc(F)c2)nn2c(C(=O)NC(C)C(F)(F)F)cnc12 (stereo not shown) is ___
Found: 0.28

Lookup: Any idea what its log10 of solubility is? The molecule is Cc1cc(-c2ccc(F)cc2)nn2c(C(=O)NC(C)C(F)(F)F)ncc12 (stereo not shown)
Found: 0.51

Lookup: I am curious: what log10 of solubility value has been reported for Cc1cc(-c2ccc(F)cc2C#N)nn2c(C(=O)N[C@H](C)C(F)(F)F)cnc12 ?
Found: 0.28

Lookup: Which log10 of solubility is reported for this molecule? Cc1cc(-c2cccnc2)nc2c(C(=O)NC(C3CC3)C(F)(F)F)csc12 (stereo not shown)
Found: -0.30

Lookup: Entry O=C(NC1CCCc2ccccc21)c1cnc2ccc(Cl)nn12 (stereo not shown) : reported log10 of solubility = ?
Found: 1.24

---

Experiment: Compound solubility in water
Type: physicochemical
Observable: solubility (µg/mL)
# number only, unit µg/mL dropped from output

Example molecules with recorded solubility:
>  <Molecule>
Cc1cc(-c2ccc(F)cc2C#N)nn2c(C(=O)N[C@@H](C)C(F)(F)F)cnc12

>  <solubility [µg/mL]>
1.9

$$$$
>  <Molecule>
Cc1cc(-c2cccc(F)c2)nn2c(C(=O)N[C@H](C3CC3)C(F)(F)F)ncc12

>  <solubility [µg/mL]>
0.2

$$$$
>  <Molecule>
Cc1cc(C)c2scc(C(=O)NC(C3CC3)C(F)(F)F)c2n1 (stereo not shown)

>  <solubility [µg/mL]>
0.1

$$$$
>  <Molecule>
Cc1cc(-c2cccnc2)nc2c(C(=O)NC(C3CC3)C(F)(F)F)nsc12 (stereo not shown)

>  <solubility [µg/mL]>
0.3

$$$$
>  <Molecule>
Cc1cc(-c2ccc(F)cc2)nn2c(C(=O)N[C@@H](C)C3CC3)cnc12

>  <solubility [µg/mL]>
6.5

$$$$

Lookup: If you can, please state the reported solubility value of Cc1cc(C)c2ncc(C(=O)NC(C)(C)C3CC3)n2n1 .
Found: 27.3

Lookup: Bench note: what solubility did Cc1nc2cc(-c3cc(C)c4ncc(C(=O)NC(C)C(F)(F)F)n4n3)ccc2o1 (stereo not shown) show?
Found: 1.5

---

Experiment: Compound solubility in water
Type: physicochemical
solubility values by entry
Could you give me the number in µg/mL? Just the number is fine.

Look over these answered cases.
>  <Compound>
Cc1cc(-c2ccc3ocnc3c2)nn2c(C(=O)N[C@H](C)C(F)(F)F)cnc12

>  <solubility / µg/mL>
1

$$$$
>  <Compound>
Cc1cc(-c2ccccc2C#N)nn2c(C(=O)NC(C3CC3)C(F)(F)F)cnc12 (stereo not shown)

>  <solubility / µg/mL>
0.1

$$$$
>  <Compound>
Cc1cc(-c2cncc(Cl)c2)nn2c(C(=O)N[C@@H](C3CC3)C(F)(F)F)ncc12

>  <solubility / µg/mL>
0.7

$$$$
>  <Compound>
Cc1cc(-c2cccc(F)c2C#N)nn2c(C(=O)N[C@@H](C)C(F)(F)F)cnc12

>  <solubility / µg/mL>
1.1

$$$$
>  <Compound>
Cc1cc(-c2cccc3ncoc23)nn2c(C(=O)NC(C3CC3)C(F)(F)F)cnc12 (stereo not shown)

>  <solubility / µg/mL>
0.3

$$$$

Lookup: Quick one: solubility of Cc1cc(-c2ccc(F)cc2)nn2c(C(=O)NC(C3CC3)C(F)(F)F)ncc12 (stereo not shown) ?
Found: 0.2

Lookup: Given the compound Cc1cc(-c2ccc(F)cc2C#N)nn2c(C(=O)NC(C)C(F)(F)F)cnc12 (stereo not shown) , what is its reported solubility?
Found: 3.9

Lookup: Looking for the measured solubility of Cc1cc(Cl)nn2c(C(=O)Nc3ccc4c(c3)CCC4)cnc12 , can you help?
Found: 0.3

Lookup: Given Cc1cc(-c2ccns2)nn2c(C(=O)NC(C)(C)C3CC3)cnc12 , state its recorded solubility.
Found: 6.7

Lookup: What measured solubility goes with Cc1cc(-c2ccc(F)cc2C#N)nn2c(C(=O)N[C@@H](C)C3CC3)cnc12 ?
Found: 2.6

---

Assay: Compound solubility in water
Assay type: physicochemical
Let's look at some compounds and their measured solubility.
Note: unit µg/mL is implicit; provide only the numeric part.

Sample records with solubility:
>  <Compound>
Cc1cc(-c2cccnc2)nc2c(C(=O)NC(C)C3CC3)csc12 (centres unmarked)

>  <Unit Of Measure>
µg/mL

>  <solubility>
1.4

$$$$
>  <Compound>
C#CC(C)(C)NC(=O)c1cnc2c(C)cc(-c3ccns3)nn12

>  <Unit Of Measure>
µg/mL

>  <solubility>
17.2

$$$$
>  <Compound>
Cc1cc(-c2cccc3ocnc23)nc2c(C(=O)NC(C3CC3)C(F)(F)F)nsc12 (centres unmarked)

>  <Unit Of Measure>
µg/mL

>  <solubility>
1.1

$$$$
>  <Compound>
Cc1cc(C)c2ncc(C(=O)NC3CCCc4ccccc43)n2n1 (centres unmarked)

>  <Unit Of Measure>
µg/mL

>  <solubility>
8.8

$$$$

Lookup: Consider the compound COc1cccc(-c2cc(C)c3ncc(C(=O)NC(C4CC4)C(F)(F)F)n3n2)c1 (centres unmarked) and give its measured solubility.
Found: 1.4

Lookup: Data request, read-out solubility, for Cc1cc(-c2ccc(F)cc2)nn2c(C(=O)NC(C)(C)C3CC3)cnc12
Found: 0.9

Lookup: GET /values?readout=solubility&item= Cc1cc(-c2cccc3ocnc23)nn2c(C(=O)NC(C3CC3)C(F)(F)F)cnc12 (centres unmarked)
Found: 1.6

Lookup: Which solubility reading was recorded for the compound C#Cc1ccc(NC(=O)c2ncc3c(C)cc(C)nn23)cc1 ?
Found: 1.8

Lookup: Please give the measured solubility for this compound: Cc1cc(C)c2ncc(C(=O)Nc3ccc(-c4cocn4)cc3)n2n1
Found: 1.8

Lookup: Data request, read-out solubility, for Cc1cc(-c2ccns2)nn2c(C(=O)NC(C3CC3)C(F)(F)F)cnc12 (centres unmarked)
Found: 0.5

Lookup: Data request, read-out solubility, for CCCCCCOC1CCC(NC(=O)c2cnc3c(C)cc(Cl)nn23)CC1 (centres unmarked)
Found: 3.1

---

# solubility values compiled below
Assay: Compound solubility in water
Type: physicochemical
Just the number please, in µg/mL, no unit attached.

Would you please look over these solved cases?
>  <Compound>
C#CC(NC(=O)c1ncc2c(C)cc(-c3cccc(F)c3)nn12)C(F)(F)F (stereo not drawn)

>  <Unit Of Measure>
µg/mL

>  <solubility>
0.7

$$$$
>  <Compound>
Cc1cc(-c2cccc(F)c2)nn2c(C(=O)NC(C)(C)C3CC3)cnc12

>  <Unit Of Measure>
µg/mL

>  <solubility>
1.9

$$$$

Then there is this compound:
Lookup: Recorded solubility of O=C(Nc1ccc2c(c1)CCC2)c1cnc2ccc(Cl)nn12 , please.
Found: 0.7
